Catalogue of EC50 readings, one per entry.
test_system: h-TGR5 (Homo sapiens)
Construct: expressed in transfected cells
Sequence (Q8TDU6 1-330): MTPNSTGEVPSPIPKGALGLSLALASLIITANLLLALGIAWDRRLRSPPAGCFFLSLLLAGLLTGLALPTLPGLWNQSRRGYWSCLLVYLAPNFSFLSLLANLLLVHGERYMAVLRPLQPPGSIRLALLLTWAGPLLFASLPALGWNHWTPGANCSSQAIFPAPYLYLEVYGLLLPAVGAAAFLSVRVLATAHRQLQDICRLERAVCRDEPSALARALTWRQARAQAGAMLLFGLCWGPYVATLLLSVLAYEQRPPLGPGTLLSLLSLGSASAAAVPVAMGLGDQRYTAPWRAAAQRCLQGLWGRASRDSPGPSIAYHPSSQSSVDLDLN
assay: TGR5 cAMP Assay using Cisbio cAMP Dynamic2 htrf kit (hTGR5CRE-luc HEK 293 cells)
Assay type: cell-based
test_conditions: h-TGR5 cAMP EC50, Table 1; read-out: cAMP (EC50)

| compound_structure_string | EC50 |
| --- | --- |
| COc1cc(C(C)(C)c2cnc(SCc3c(F)cc(C(C)(C)O)cc3Cl)n2-c2ccc(F)cc2)ccc1Cl | < 100 nM |
| COc1ccc(C(C)(C)c2cnc(SCc3ccc(F)cc3Cl)n2-c2ccc(F)cc2)cc1OC | 100 to 1000 nM |
| CC(C)(c1ccc(F)c(F)c1)c1cnc(SCc2ccc(S(=O)(=O)NC(=O)NN3CCCC3)cc2Cl)n1-c1ccc(F)cc1 | 1000 to 10000 nM |
| COc1cc(-n2c(C(C)(C)c3ccc(Cl)c(Cl)c3)cnc2SCc2ccc(S(=O)(=O)NC(=O)NN3CCOCC3)cc2Cl)ccc1F | 100 to 1000 nM |
| COc1cc(-n2c(C(C)(C)c3ccc(S(C)(=O)=O)cc3)cnc2SCc2c(F)cc(C(=O)O)cc2F)ccc1F | < 100 nM |
| COc1cc(-n2c(C(C)(C)c3ccc4onc(N)c4c3)cnc2SCc2c(F)cc(C(=O)O)cc2F)ccc1F | < 100 nM |
| COc1ccc(C(C)(C)c2cnc(SCc3ccc(S(=O)(=O)NC(=O)NC(C)C)cc3Cl)n2-c2ccc(F)cc2)cc1Cl | 100 to 1000 nM |
| COc1cc(C(C)(C)c2cnc(SCc3c(F)cc(-c4nnn[nH]4)cc3F)n2-c2ccc(F)cc2)ccc1Cl | < 100 nM |
| CC(C)(c1ccc(S(N)(=O)=O)c(Cl)c1)c1cnc(SCc2ccc(Cl)c(-c3nnn[nH]3)c2)n1-c1ccc(F)c(F)c1 | 100 to 1000 nM |
| CC(=O)COc1ccc(CSc2ncc(C(C)(C)c3ccc(Cl)c(Cl)c3)n2-c2ccc(F)cc2)cc1S(N)(=O)=O | 100 to 1000 nM |
| COc1cc(C(C)(C)c2cnc(SCc3ccc(S(=O)(=O)NC(=O)NN4CCCC4)cc3Cl)n2-c2ccc(F)cc2)ccc1S(C)(=O)=O | 100 to 1000 nM |
| CC(C)(c1ccc(CO)c(Cl)c1)c1cnc(SCc2ccc(F)cc2Cl)n1-c1ccc(F)cc1 | 100 to 1000 nM |
| COc1cc(C(C)(C)c2cnc(SCc3ccc(S(=O)(=O)NC(=O)NN4CCCC4)cc3Cl)n2-c2ccc(F)cc2)ccc1F | 100 to 1000 nM |
| CC(C)(c1ccc(S(N)(=O)=O)c(Cl)c1)c1cnc(SCc2c(F)cc(C(=O)O)cc2F)n1-c1ccc(F)c(F)c1 | < 100 nM |
| CCOC(=O)NS(=O)(=O)c1ccc(CSc2ncc(C(C)(C)c3ccc(Cl)c(OC)c3)n2-c2ccc(F)cc2)c(F)c1 | < 100 nM |
| COc1cc(C(C)(C)c2cnc(COc3ccc(Cl)c(-c4nnn[nH]4)c3)n2-c2ccc(F)cc2)ccc1Cl | 100 to 1000 nM |

###

test_system: h-TGR5 (Homo sapiens, UniProt Q8TDU6)
Construct: expressed in transfected cells
Sequence (Q8TDU6 1-330): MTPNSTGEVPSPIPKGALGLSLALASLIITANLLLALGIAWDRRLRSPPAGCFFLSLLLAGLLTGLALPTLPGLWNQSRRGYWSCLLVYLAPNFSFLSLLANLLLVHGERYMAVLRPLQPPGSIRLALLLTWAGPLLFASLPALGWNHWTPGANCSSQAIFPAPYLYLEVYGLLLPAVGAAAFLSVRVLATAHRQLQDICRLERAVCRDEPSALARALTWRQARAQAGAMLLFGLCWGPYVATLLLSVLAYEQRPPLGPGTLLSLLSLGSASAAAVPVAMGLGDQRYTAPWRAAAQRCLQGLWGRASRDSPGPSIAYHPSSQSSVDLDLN
assay: TGR5 cAMP Assay using Cisbio cAMP Dynamic2 htrf kit (hTGR5CRE-luc HEK 293 cells)
Type: cell-based
test_conditions: h-TGR5 cAMP EC50, Table 1; read-out: cAMP (EC50)
pEC50: −log10 of the molar value.

| molecule | pEC50 |
| --- | --- |
| CC(C)(c1ccc(Cl)c(Cl)c1)c1cnc(SCc2ccc(C(=O)O)c(Cl)c2)n1-c1ccc(F)cc1 | 6.00 to 7.00 |
| COc1cc(C(C)(C)c2cnc(SCc3c(F)cc(S(=O)(=O)NC(=O)NN4CCOCC4)cc3F)n2-c2ccc(F)cn2)ccc1Cl | 6.00 to 7.00 |
| CNS(=O)(=O)c1ccc(C(C)(C)c2cnc(SCc3ccc(S(=O)(=O)NC(=O)NN4CCCC4)cc3Cl)n2-c2ccc(F)cc2)cc1OC | 6.00 to 7.00 |
| COc1ccc(C(C)(C)c2cnc(SCc3c(F)cc(C(=O)O)cc3Cl)n2-c2ccc(F)cc2)cc1Cl | > 7.00 |
| Cc1cc(-n2c(C(C)(C)c3ccc(Cl)c(Cl)c3)cnc2SCc2ccc(S(=O)(=O)NC(=O)NN3CCCC3)cc2Cl)ccc1F | 6.00 to 7.00 |
| COc1cc(C(C)(C)c2cnc(SCc3ccc(C(=O)NCCS(=O)(=O)O)cc3F)n2-c2ccc(F)cc2)ccc1Cl | > 7.00 |
| COc1cc(-n2c(C(C)(C)c3ccc(S(N)(=O)=O)c(Cl)c3)cnc2SCc2c(F)cc(S(=O)(=O)NC(=O)NN3CCOCC3)cc2F)ccc1F | > 7.00 |
| COc1cc(-n2c(C(C)(C)c3ccc(S(N)(=O)=O)c(Cl)c3)cnc2SCc2c(F)cc(C(=O)NC(CCCNC(=N)N)C(=O)O)cc2Cl)ccc1F (stereo not drawn) | > 7.00 |
| COc1cc(-n2c(C(C)(C)c3ccc(Cl)c(Cl)c3)cnc2SCc2ccc(CCCNC(=N)N)c(C(=O)O)c2)ccc1F | 6.00 to 7.00 |
| CC(C)NC(=O)NS(=O)(=O)c1ccc(CSc2ncc(C(C)(C)c3ccc(F)c(F)c3)n2-c2ccc(F)cc2)c(Cl)c1 | 6.00 to 7.00 |
| COc1cc(C(C)(C)c2cnc(SCc3ccc(C(=O)NCS(=O)(=O)O)cc3F)n2-c2ccc(F)cc2)ccc1Cl | > 7.00 |
| CC(C)(c1ccc(Cl)c(Cl)c1)c1cnc(SCc2ccc(C(=O)NCCS(=O)(=O)O)cc2F)n1-c1ccc(F)cc1 | > 7.00 |
| CC(C)(c1ccc(Cl)c(Cl)c1)c1cnc(SCc2ccc(F)cc2Cl)n1-c1cccnc1 | 5.00 to 6.00 |
| COc1cc(-n2c(C(C)(C)c3ccc(Cl)c(Cl)c3)cnc2SCc2c(F)cc(C(=O)NCCC(=O)O)cc2F)ccc1F | > 7.00 |
| COc1cc(C(C)(C)c2cnc(SCc3c(F)cc(N)cc3Cl)n2-c2ccc(F)cc2)ccc1Cl | > 7.00 |

###

Measured EC50 accompanies every entry in the list below.
test_system: human TGR5 (h-TGR5) (Homo sapiens, UniProt Q8TDU6)
Construct: expressed in transfected cells
assay: TGR5/CRE-Luciferiase Assay (HEK 293 hTGR5/CRE-Luc cells)
Assay type: cell-based
test_conditions: h-TGR5 CRE-Luc EC50, Table 1; read-out: CRE-Luc (EC50)

| compound | EC50 |
| --- | --- |
| CC(C)(c1ccc(Cl)c(OCCN2CCOCC2)c1)c1cnc(SCc2c(F)cccc2Cl)n1-c1ccc(F)cc1 | 100 to 1000 nM |
| COc1cc(C(C)(C)c2cnc(SCc3c(F)cc(S(=O)(=O)NCCS(=O)(=O)O)cc3Cl)n2-c2ccc(F)cc2)ccc1Cl | < 100 nM |
| CC(C)(c1ccc(Cl)c(Cl)c1)c1cnc(SCc2ccc(Cl)c(-c3nnn[nH]3)c2)n1-c1ccc(F)cc1 | 100 to 1000 nM |
| COc1cc(C(C)(C)c2cnc(SCc3c(F)cc(OCCNC(=N)N)cc3F)n2-c2ccc(F)cc2)ccc1Cl | < 100 nM |
| COc1ccc(C(C)(C)c2c(-c3ccc(F)cc3)nc(SCc3c(F)cccc3Cl)n2C)cc1OC | 1000 to 10000 nM |
| COc1ccc(C(C)(C)c2cnc(S(=O)(=O)CCc3ccc(F)c(Cl)c3)n2-c2ccc(F)cc2)cc1OC | < 100 nM |
| CC(C)(Oc1ccc(C(C)(C)c2cnc(SCc3ccc(F)cc3Cl)n2-c2ccc(F)cc2)cc1Cl)C(=O)O | 100 to 1000 nM |
| COc1cc(-n2c(C(C)(C)c3ccc(Cl)c(Cl)c3)cnc2SCC2CCN(C(=O)NC(C)C)CC2)ccc1F | < 100 nM |
| CC(C)(c1ccc2onc(N)c2c1)c1cnc(SCc2c(F)cc(C(=O)NC(CCCNC(=N)N)C(=O)O)cc2Cl)n1-c1ccc(F)cc1 (centres unmarked) | < 100 nM |
| COc1cc(C(C)(C)c2cnc(SCc3c(F)cc(C(=O)O)cc3Cl)n2-c2cccnc2)ccc1Cl | 1000 to 10000 nM |
| COc1ccc(C(C)(C)c2cnc(COc3c(F)cccc3Cl)n2-c2ccc(F)cc2)cc1OC | < 100 nM |
| CC(C)(c1ccc(Cl)c(Cl)c1)c1cnc(COc2ncc(C(F)(F)F)cc2Cl)n1-c1ccc(F)cc1 | 1000 to 10000 nM |
| CC(C)(c1ccc(Cl)c(Cl)c1)c1cnc(SCc2ccc(-c3nnn[nH]3)cc2Cl)n1-c1ccc(F)cc1 | 100 to 1000 nM |
| COc1cc(C(C)(C)c2cnc(SCc3c(F)cc(C(=O)NCCCC(NC(=N)N)C(=O)O)cc3Cl)n2-c2ccc(F)cc2)ccc1Cl (centres unmarked) | < 100 nM |
| CC(C)(c1ccc(Cl)c(Cl)c1)c1cnc(CCc2c(F)cccc2Cl)n1-c1ccc(F)cc1 | 100 to 1000 nM |
| CC(C)(O)COc1cc(F)ccc1CSc1ncc(C(C)(C)c2ccc(Cl)c(Cl)c2)n1-c1ccc(F)cc1 | 100 to 1000 nM |
| COc1ccc(C(C)(C)c2cnc(SCc3c(F)cccc3Cl)n2-c2ccc(F)cc2)cc1 | < 100 nM |
| COc1cc(C(C)(C)c2cnc(SCc3c(F)cc(OCc4nnn[nH]4)cc3F)n2-c2ccc(F)cc2)ccc1Cl | < 100 nM |
| COc1cc(C(C)(C)c2cnc(SCc3c(F)cc(OCCNC(=N)N)cc3Cl)n2-c2ccc(F)cc2)ccc1F | < 100 nM |
| CC(C)(c1ccc(Cl)c(O)c1)c1cnc(SCc2c(F)cccc2Cl)n1-c1ccc(F)cc1 | < 100 nM |
| COc1cc(-n2c(C(C)(C)c3ccc(Cl)c(Cl)c3)cnc2SCC2CCN(c3nnn[nH]3)CC2)ccc1F | < 100 nM |
| CC(C)(c1ccc(F)c(F)c1)c1cnc(SCc2ccc(S(=O)(=O)NC(=O)NN3CCCC3)cc2Cl)n1-c1ccc(F)cc1F | 100 to 1000 nM |
| CC(C)(c1ccc(Cl)c(Cl)c1)c1cnc(SCc2ccc(S(=O)(=O)NC(=O)NN3CCCC3)cc2Cl)n1-c1ccc(F)cn1 | 100 to 1000 nM |
| CC(C)(c1ccc(Cl)c(Cl)c1)c1cnc(SCc2c(F)cc(C(N)=O)cc2F)n1-c1ccc(F)cc1 | 100 to 1000 nM |
| CCOC(=O)NS(=O)(=O)c1ccc(CSc2ncc(C(C)(C)c3ccc(S(N)(=O)=O)c(Cl)c3)n2-c2ccc(F)cc2)c(Cl)c1 | 100 to 1000 nM |
| COCCNC(=O)c1ccc(CSc2ncc(C(C)(C)c3ccc(Cl)c(Cl)c3)n2-c2ccc(F)cc2)c(F)c1 | 100 to 1000 nM |
| CCOC(=O)NS(=O)(=O)c1ccc(CSc2ncc(C(C)(C)c3ccc(Cl)c(OC)c3)n2-c2ccc(F)cc2)c(Cl)c1 | < 100 nM |
| CC(C)(c1ccc(Cl)c(Cl)c1)c1cnc(SCc2ccc(F)cc2Cl)n1-c1cccnc1 | 100 to 1000 nM |
| CC(C)(c1ccc(Cl)c(Cl)c1)c1cnc(SCc2ccc(S(=O)(=O)O)cc2Cl)n1-c1ccc(F)cc1 | 100 to 1000 nM |
| CC(C)(c1ccc(Cl)c(Cl)c1)c1cnc(SCC2CCN(c3nnn[nH]3)CC2)n1-c1ccc(F)c(F)c1 | < 100 nM |
| CC(C)(c1ccc(Cl)c(Cl)c1)c1cnc(SCc2ccc(-c3nnn[nH]3)c(Cl)c2)n1-c1ccc(F)cc1 | 100 to 1000 nM |
| COc1cc(C(C)(C)c2cnc(SCc3ccc(S(=O)(=O)NC(=O)NN4CCCC4)cc3Cl)n2-c2ccc(F)cc2F)ccc1Cl | 100 to 1000 nM |
